target: Sphingosine 1-phosphate receptor 1 (Homo sapiens, UniProt P21453); test: Agonist activity at human S1P1R expressed in CHO cells assessed as stimulation of [35S]GTPgammaS binding; format: functional, cell-based
Sequence (P21453 whole entry): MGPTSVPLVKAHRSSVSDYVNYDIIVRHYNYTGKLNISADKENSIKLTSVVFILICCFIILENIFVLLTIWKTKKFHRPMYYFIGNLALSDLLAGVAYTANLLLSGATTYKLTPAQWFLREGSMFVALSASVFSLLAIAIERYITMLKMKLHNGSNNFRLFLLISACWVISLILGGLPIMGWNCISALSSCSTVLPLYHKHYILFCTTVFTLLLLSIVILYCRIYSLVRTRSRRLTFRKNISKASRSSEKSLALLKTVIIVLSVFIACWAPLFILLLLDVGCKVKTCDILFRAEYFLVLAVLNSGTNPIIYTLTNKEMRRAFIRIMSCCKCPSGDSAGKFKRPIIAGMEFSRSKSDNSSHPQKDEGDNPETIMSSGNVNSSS
pEC50: −log10 of the molar value.
Below is a list of entries, each paired with its recorded pEC50 value.

[
  {
    "smiles.text": "O=C(O)C1CN(Cc2ccc(-c3cc4cc(Cc5ccccc5)ccc4o3)cc2)C1",
    "qualifier": "=",
    "pEC50": 6.36
  },
  {
    "smiles.text": "O=C(O)C1CN(Cc2ccc(-c3cc4cc(-c5cccnc5)ccc4o3)cc2)C1",
    "qualifier": "<",
    "pEC50": 6.00
  },
  {
    "smiles.text": "O=C(O)C1CN(Cc2ccc(-c3cc4cc(C5CCCCC5)ccc4o3)cc2)C1",
    "qualifier": "=",
    "pEC50": 6.22
  },
  {
    "smiles.text": "CCCCc1ccc2oc(-c3ccc(CN4CC(C(=O)O)C4)cc3)cc2c1",
    "qualifier": "=",
    "pEC50": 6.46
  }
]

====

assay: Volume of distribution at steady state in cynomolgus monkey at 1 mg/kg, iv or 5 mg/kg, po; assay type: ADME, organism-based, Macaca fascicularis; conditions: in vivo, read-out: Vdss

[
  {
    "smiles.text": "O=C(O)C1CN(Cc2ccc(-c3cc4cc(Cc5ccccc5)ccc4o3)c(F)c2)C1",
    "value.unit": "L/kg",
    "Vd": 1
  }
]

====

test: Oral bioavailability in Sprague-Dawley rat 3 mg/kg; type: ADME, organism-based; conditions: in vivo

[
  {
    "smiles.text": "O=C(O)C1CN(Cc2ccc(-c3cc4cc(Cc5ccccc5)ccc4o3)c(F)c2)C1",
    "value.unit": "%",
    "bioavailability": 80
  }
]

====

test: Mean residence time in Sprague-Dawley rat at 1 mg/kg, iv or 3 mg/kg, po; assay type: ADME, organism-based; settings: in vivo

[
  {
    "smiles.text": "O=C(O)C1CN(Cc2ccc(-c3cc4cc(Cc5ccccc5)ccc4o3)c(F)c2)C1",
    "MRT / h": 12.7
  }
]

====

test: Terminal half life in Sprague-Dawley rat at 1 mg/kg, iv or 3 mg/kg, po; assay type: ADME, organism-based; details: in vivo, read-out: beta t1/2 (converted)
reported.property: half-life (h)

[
  {
    "smiles.text": "O=C(O)C1CN(Cc2ccc(-c3cc4cc(Cc5ccccc5)ccc4o3)c(F)c2)C1",
    "observed": 12.1
  }
]

====

assay: Metabolic stability in human liver microsomes assessed as half life; assay type: ADME, Microsome

[
  {
    "smiles.text": "O=C(O)C1CN(Cc2ccc(-c3cc4cc(Cc5ccccc5)ccc4o3)c(F)c2)C1",
    "half-life": "> 1.5 h"
  }
]

====

Below is a list of entries, each paired with its recorded EC50 value.
biological target: Sphingosine 1-phosphate receptor 3 (Homo sapiens, UniProt Q99500); assay: Agonist activity at human S1P3R expressed in CHO cells by Ca(2+) mobilization assay; type: functional, cell-based
Sequence (Q99500 whole entry): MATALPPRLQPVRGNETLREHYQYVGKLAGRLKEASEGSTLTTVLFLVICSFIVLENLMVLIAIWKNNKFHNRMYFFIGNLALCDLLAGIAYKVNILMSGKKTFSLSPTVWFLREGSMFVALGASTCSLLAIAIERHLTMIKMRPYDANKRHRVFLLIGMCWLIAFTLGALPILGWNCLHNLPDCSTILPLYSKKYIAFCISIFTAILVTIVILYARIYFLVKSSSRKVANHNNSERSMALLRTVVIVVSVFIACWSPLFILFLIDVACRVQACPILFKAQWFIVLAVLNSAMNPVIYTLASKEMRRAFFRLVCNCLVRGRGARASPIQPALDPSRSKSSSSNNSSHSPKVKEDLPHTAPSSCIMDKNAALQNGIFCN
reported.property: EC50

[
  {
    "smiles.text": "O=C(O)C1CN(Cc2ccc(-c3cc4cc(C5CCCCC5)ccc4o3)c(F)c2)C1",
    "observed": "> 25 µM"
  },
  {
    "smiles.text": "CCCCc1ccc2oc(-c3ccc(CN4CC(C(=O)O)C4)cc3)cc2c1",
    "observed": "> 25 µM"
  },
  {
    "smiles.text": "CCCCOc1ccc2oc(-c3ccc(CN4CC(C(=O)O)C4)cc3)cc2c1",
    "observed": "> 7.2 µM"
  },
  {
    "smiles.text": "O=C(O)C1CN(Cc2ccc(-c3cc4cc(Cc5ccccc5)ccc4o3)cc2)C1",
    "observed": "> 4.3 µM"
  },
  {
    "smiles.text": "O=C(O)C1CN(Cc2ccc(-c3cc4cc(OCC5CC5)ccc4o3)c(F)c2)C1",
    "observed": "4.8 µM"
  },
  {
    "smiles.text": "CC(C)Cc1ccc2oc(-c3ccc(CN4CC(C(=O)O)C4)cc3)cc2c1",
    "observed": "1.9 µM"
  },
  {
    "smiles.text": "O=C(O)C1CN(Cc2ccc(-c3cc4cc(C5CCCCC5)ccc4o3)cc2)C1",
    "observed": "> 25 µM"
  },
  {
    "smiles.text": "O=C(O)C1CN(Cc2ccc(-c3cc4cc(C5CCCCC5)ccc4o3)nc2)C1",
    "observed": "> 25 µM"
  },
  {
    "smiles.text": "CCCCOc1ccc2cc(-c3ccc(CN4CC(C(=O)O)C4)cc3)oc2c1",
    "observed": "25 µM"
  },
  {
    "smiles.text": "O=C(O)C1CN(Cc2ccc(-c3cc4cc(Cc5ccccc5)ccc4o3)cc2F)C1",
    "observed": "3.43 µM"
  },
  {
    "smiles.text": "O=C(O)C1CN(Cc2ccc(-c3cc4cc(CCc5ccccc5)ccc4o3)cc2)C1",
    "observed": "> 25 µM"
  },
  {
    "smiles.text": "CCCCOc1ccc2oc(-c3ccc(CN4CC(C(=O)O)C4)cc3Cl)cc2c1",
    "observed": "10.3 µM"
  },
  {
    "smiles.text": "O=C(O)C1CN(Cc2ccc(-c3cc4cc(Cc5ccccc5)ccc4o3)c(F)c2)C1",
    "observed": "27 µM"
  },
  {
    "smiles.text": "CCCCOc1ccc2oc(-c3ncc(CN4CC(C(=O)O)C4)s3)cc2c1",
    "observed": "> 25 µM"
  },
  {
    "smiles.text": "O=C(O)C1CN(Cc2ccc(-c3cc4cc(N5CCCCC5)ccc4o3)cc2)C1",
    "observed": "1.44 µM"
  },
  {
    "smiles.text": "O=C(O)C1CN(Cc2ccc(-c3cc4cc(-c5cccnc5)ccc4o3)cc2)C1",
    "observed": "> 25 µM"
  },
  {
    "smiles.text": "CCCCOc1ccc2oc(-c3ccc(CN4CC(C(=O)O)C4)cc3OC)cc2c1",
    "observed": "> 25 µM"
  },
  {
    "smiles.text": "O=C(O)C1CN(Cc2ccc(-c3cc4cc(OCC5CCCC5)ccc4o3)c(F)c2)C1",
    "observed": "> 25 µM"
  },
  {
    "smiles.text": "O=C(O)C1CN(Cc2ccc(-c3cc4cc(Oc5ccccc5)ccc4o3)cc2)C1",
    "observed": "> 25 µM"
  }
]
